Origin of values: patent US20140348819A1

system: six V600E BRAF melanoma cell lines; test: Screening of recombinant RTK ligands for ability to confer resistance to BRAFi (PLX4720) or MEKi (PD184352) (Table 4); format: cell-based, human; parameters: scale not given here; conditions: Colo 829, PD184352 - 1 uM, ligand 6.25 ng/ml
Note to self: ability of recombinant RTK ligand to confer resistance under 1 means satisfied, ties and anything higher get not satisfied.

The following molecules have reported results that may help.
{"columns": ["Molecule", "Category Label"],
 "data": [
  ["GDNF (protein, UniProt P39905 78-211, looked up) Glial cell line-derived …: SPDKQMAVLPRRERNRQAAAANPENSRGKGRRGQRGKNRGCVLTAIHLNVTDLGLGYETKEELIFRYCSGSCDAAETTYDKILKNLSRNRRLVSDKVGQACCRPIAFDDDLSFLDDNLVYHILRKHSAKRCGCI", "satisfied"],
  ["Ephrin-A4 (protein, UniProt P52798 26-170, looked up) Ephrin-A4: LRHVVYWNSSNPRLLRGDAVVELGLNDYLDIVCPHYEGPGPPEGPETFALYMVDWPGYESCQAEGPRAYKRWVCSLPFGHVQFSEKIQRFTPFSLGFEFLPGETYYYISVPTPESSGQCLRLQVSVCCKERKSESAHPVGSPGES", "not satisfied"]
]}

# ---- query molecule ----
In: Report whether reported ability of recombinant RTK ligand to confer resistance is lower than 1 (strictly) for flt-3 ligand (FL) (protein, UniProt P49771 27-235, looked up) Fms-related tyrosine kinase 3 …: TQDCSFQHSPISSDFAVKIRELSDYLLQDYPVTVASNLQDEELCGGLWRLVLAQRWMERLKTVAGSKMQGLLERVNTEIHFVTKCAFQPPPSCLRFVQTNISRLLQETSEQLVALKPWITRQNFSRCLELQCQPDSSTLPPPWSPRPLEATAPTAPQPPLLLLLLLPVGLLLLAAAWCLHWQRTRRRTPRPGEQVPPVPSPQDLLLVEH
Out: satisfied
